Test system: K-562 leukemia
experiment: NCI tumour cell line growth inhibition, 48 h
experimental-endpoint: TGI

molecule: COC(=O)CCC1=C(CC(=O)OC)C(C)(OC)N=C1NC(=O)OCc1ccccc1 (stereo not drawn)
TGI: > 100 µM

molecule: OCc1ccc(N2CCc3cccc(F)c3C2)cc1Cl
TGI: 16.5 µM

molecule: O=S(=O)(O)c1cc(N=Nc2c(O)ccc3ccccc23)ccc1/C=C/c1ccc(N=Nc2c(O)ccc3ccccc23)cc1S(=O)(=O)O
TGI: > 100 µM

molecule: CC1=C(C(=O)CC(=O)C(=O)Nc2cc(C)ccc2C)Sc2ccccc2N1
TGI: > 100 µM

molecule: CCCC(CCC(N)=O)(CCC(N)=O)[N+](=O)[O-]
TGI: > 100 µM

Now consider the entry below.
Reported TGI for O=C(Cc1nc2ccccc2c(=O)n1-c1ccccc1Cl)c1ccncc1 was > 100 µM

* * *

Tested on: SN12C renal
experiment: NCI tumour cell line growth inhibition, 48 h
experimental-endpoint: TGI

// known answers, use as guide
molecule: c1ccc2c(c1)c1c(n2CCOCCN2CCCC2)CCCC1
TGI: 33.6 µM

molecule: COc1ccc(N=NC(C(=O)c2ccccc2)C(=O)c2ccccc2)cc1
TGI: 78.8 µM

molecule: NC1=C(NC(=O)Cc2ccccc2F)C(=O)c2ccccc2C1=O
TGI: > 100 µM

molecule: O=C(O)C(O)C(O)C(=O)O (stereo unspecified)
TGI: > 100 µM

# next molecule below
O=C(O)CCS/C(=C\C(SCCC(=O)O)c1ccc(Cl)cc1)c1ccc(Cl)cc1 (stereo unspecified) yielded TGI of > 100 µM

* * *

Tested on: HT29 colon
experiment: NCI tumour cell line growth inhibition, 48 h; in the data active means GI50 below about 0.43 µM; inactive means the rest
Please answer using one outcome listed in active, inactive

Could you kindly confirm the outcome this assay logged for COc1cc(F)c(F)c(Nc2ccc(I)cc2F)c1NS(=O)(=O)C1(C[C@H](O)CO)CC1 ?
active

Could you check what this test reported for CCCCCCCCCCCCCCCCCC1=NC(C)(C)CN1CC(C)O (stereo not given) ?
inactive

In this assay, the call recorded for Cc1ncc(C(=O)Nc2ccc(CN3CCN(C)CC3)c(C(F)(F)F)c2)cc1C#Cc1cnc2cccnn12 was what?
active

// param item: CCOC(=O)c1[nH]c(Br)c(-c2ccc(OC)c(OC)c2)c1Br ; yields the recorded call
active

Test call for this compound, please: COc1ccc(-c2ccncc2)cc1C(N)=O
inactive

Identify the outcome logged in this assay for the compound shown: O=S(=O)(NCCNc1nccc(-c2c(-c3ccc(F)c(O)c3)nc3sccn23)n1)c1ccc(F)cc1
inactive

* * *

Tested on: KM12 colon
experiment: NCI tumour cell line growth inhibition, 48 h; in the data active means GI50 below about 0.43 µM; inactive means the rest
Outcomes you can answer with include only these: class 1 = active, class 0 = inactive

molecule: FC(F)(c1ccc2ncccc2c1)c1nnc2ccc(-c3ccncc3)nn12
cat: class 0
--
molecule: CC(=O)c1ccc2c(c1)C1C=CCC1[C@H](c1cc3c(cc1Br)OCO3)N2 (stereo partly drawn)
cat: class 0
--
molecule: Nc1ccccc1C#C/C=C\C#Cc1ccc(OCCCNC(=O)c2cc3ccccc3[nH]2)cc1
cat: class 0
--
molecule: [C](#Cc1ccccc1)[Hg][C]#Cc1ccccc1
cat: class 0
--
molecule: O=C(/C=C/C12c3ccccc3C(c3ccccc31)C1C(=O)NC(=O)C12)c1ccc(Cl)cc1Cl (stereo not drawn)
cat: class 0

State the result this test recorded for COc1ccc2c(=O)cc(-c3ccccc3)[nH]c2c1 .
class 1

Status in this test for Cn1c(-c2c(N)n(Nc3cccc(Cl)c3)c3nc(C#N)c(C#N)nc23)nc2ccccc21 ?
class 0

How did this test come out for COc1cc(OC)c(C(=O)/C=C/c2cc3c(cc2OCc2ccccc2)OC(C)(C)CC3)cc1CC=C(C)C ?
class 0

Values were extracted from PubChem BioAssay (NCI).
